Provenance of the data: ChEMBL document CHEMBL5620424

Target: Muscarinic acetylcholine receptor M4 (Homo sapiens) (UniProt P08173)
Sequence (P08173 whole entry): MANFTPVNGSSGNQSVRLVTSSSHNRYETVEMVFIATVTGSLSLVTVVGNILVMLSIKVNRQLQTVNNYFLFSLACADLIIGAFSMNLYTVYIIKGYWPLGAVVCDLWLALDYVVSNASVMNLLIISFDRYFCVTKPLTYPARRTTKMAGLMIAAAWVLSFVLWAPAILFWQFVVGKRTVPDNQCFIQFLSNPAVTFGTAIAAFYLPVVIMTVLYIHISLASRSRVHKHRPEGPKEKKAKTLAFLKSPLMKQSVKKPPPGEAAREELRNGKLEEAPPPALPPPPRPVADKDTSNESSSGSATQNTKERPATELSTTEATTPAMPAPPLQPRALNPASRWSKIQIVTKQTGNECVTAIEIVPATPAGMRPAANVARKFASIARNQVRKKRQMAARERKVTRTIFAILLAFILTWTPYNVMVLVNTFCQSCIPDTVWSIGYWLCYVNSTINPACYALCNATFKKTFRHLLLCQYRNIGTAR
Test: […] human M4 mAChR expressed in Flp-In-CHO cells co-expressing CAMYEL biosensor assessed as change in baseline response at 10 uM incubated for 5 mins by BRET assay relative to control
Type: cell-based
measured_quantity: Activity (%)

Take a look at these entries with their results.
[[record]]
mol = "Cc1ccc(-n2cc(CC3CCCC3)nn2)c(-c2ccc3c(c2)C(=O)N(C)C3)n1"
val = 24.5

[[record]]
mol = "Cc1ccc(-c2cn(CC3CCCC3)nn2)c(-c2ccc3c(c2)C(=O)N(C)C3)n1"
val = 20

[[record]]
mol = "Cc1ccc(-c2cnn(C)c2)c(-c2ccc3c(c2)C(=O)N(C)C3)n1"
val = 13.7

[[record]]
mol = "CN1Cc2ccc(-c3ccccc3-c3cnn(CC4CCCC4)c3)cc2C1=O"
val = 6.49

[[record]]
mol = "Cc1ccc(-c2cnn(CC3CCCC3)c2)c(-c2cccc(C(=O)N(C)C)c2)n1"
val = 33.2

[[record]]
mol = "Cc1ccc(-c2ccc3c(c2)C(=O)N(C)C3)c(-c2cnn(CC3CCOCC3)c2)n1"
val = 4.76

[[record]]
mol = "CN1Cc2ccc(-c3ncccc3-c3cnn(CC4CCCC4)c3)cc2C1=O"
val = 13

[[record]]
mol = "Cc1ccc(-c2cnn(CC3CCCC3)c2)c(-c2ccccc2)n1"
val = 32.1


[1] Cc1ccc(-c2cnn(CC3CCN(C(=O)OC(C)(C)C)CC3)c2)c(-c2ccc3c(c2)C(=O)N(C)C3)n1
[2] Cc1ccc(-c2cnn(CC3CCCC3)c2)c(-c2ccc(N)c([N+](=O)[O-])c2)n1
[3] Cc1ccc(-c2cnn(CC3CCCC3)c2)c(-c2ccc3c(c2)NC(=O)C3)n1
Qu. Provide the items ranked by increasing Activity. Returns: the labels listed in the requested order.
Ans. 1, 2, 3
